Sourced from paper PMC8394033

Readings of IC50 for the listed compounds
# Test system: SKOV-3
# condition: human
# output: bare number, implied unit µM

| compound | IC50 [µM] |
| --- | --- |
| C[C@]12CC[C@H](OC(=O)CCOc3ccc(N(CCCl)CCCl)cc3)CC1=CC(=O)NC1C2CC[C@]2(C)C(=O)CCC12 (stereo partly drawn) [ASA-A] | 67 |

## Task Give its IC50 value. Item: CC12CCC3C(NC(=O)C=C4CC(OC(=O)CCOc5ccc(N(CCCl)CCCl)cc5)CCC43C)C1CCC(=O)N2 (stereo not drawn) [ASA-B]
## Result 98

---

# Tested on: SKOV-3
# condition: read-out: IC50 ±SEM (50% cytocidal effect, cytotoxic); SKOV-3, 48 h treatment, MTT
pIC50: −log10 of the molar value.
Readings of pIC50 for the listed compounds

| compound | value_type | result |
| --- | --- | --- |
| NC(=O)c1cccc(N)c1 [3-AB, 3-Aminobenzamide, reference compound] | pIC50 | < 4.00 |

## Task Give its pIC50 value. Item: `O=C(c1cc(Cc2n[nH]c(=O)c3ccccc23)ccc1F)N1CCN(C(=O)C2CC2)CC1`
## Result < 4.00

---

# Test system: UWB1.289
# condition: read-out: GI50 ±SEM (50% inhibition of cell growth, cytostatic)
Readings of GI50 for the listed compounds
# output: bare number, implied unit µM

For orientation, consider the following solved cases.
| compound | value_type | result |
| --- | --- | --- |
| C[C@]12CC[C@H](OC(=O)CCOc3ccc(N(CCCl)CCCl)cc3)CC1=CC(=O)NC1C2CC[C@]2(C)C(=O)CCC12 (stereo partly shown) | GI50 | 19 |
| O=C(c1cc(Cc2n[nH]c(=O)c3ccccc23)ccc1F)N1CCN(C(=O)C2CC2)CC1 | GI50 | 14 |
| CC(C)CCCC(C)[C@H]1CCC2C3NC(=O)C=C4C[C@@H](OC(=O)CCOc5ccc(N(CCCl)CCCl)cc5)CC[C@]4(C)C3CC[C@@]21C (stereo partly shown) | GI50 | 73 |

Now turn to the next compound.
## Task Request: GI50, test system UWB1.289, entry CC12CCC3C(NC(=O)C=C4CC(OC(=O)CCOc5ccc(N(CCCl)CCCl)cc5)CCC43C)C1CCC(=O)N2 (stereo not shown)
## Result 10

---

Below are TGI ±SEM (100% cell growth inhibition, cytostatic) values recorded for OVCAR-3.

For orientation, consider the following solved cases.
| compound | result |
| --- | --- |
| CC(C)CCCC(C)[C@H]1CCC2C3NC(=O)C=C4C[C@@H](OC(=O)CCOc5ccc(N(CCCl)CCCl)cc5)CC[C@]4(C)C3CC[C@@]21C (stereo partly shown) | >100 µM |
| O=C(c1cc(Cc2n[nH]c(=O)c3ccccc23)ccc1F)N1CCN(C(=O)C2CC2)CC1 | >100 µM |
| C[C@]12CC[C@H](OC(=O)CCOc3ccc(N(CCCl)CCCl)cc3)CC1=CC(=O)NC1C2CC[C@]2(C)C(=O)CCC12 (stereo partly shown) | 38 ± 2.95 µM |

## Task Give its TGI ±SEM (100% cell growth inhibition, cytostatic) value. Item: CC12CCC3C(NC(=O)C=C4CC(OC(=O)CCOc5ccc(N(CCCl)CCCl)cc5)CCC43C)C1CCC(=O)N2 (stereo not shown)
## Result 81 ± 7.82 µM

---

# Test system: OVCAR-3
# condition: human
value_type: IC50

For orientation, consider the following solved cases.
| molecule | value_type | result |
| --- | --- | --- |
| CC(C)CCCC(C)[C@H]1CCC2C3NC(=O)C=C4C[C@@H](OC(=O)CCOc5ccc(N(CCCl)CCCl)cc5)CC[C@]4(C)C3CC[C@@]21C (stereo partly drawn) | IC50 | > 100 µM |
| CC12CCC3C(NC(=O)C=C4CC(OC(=O)CCOc5ccc(N(CCCl)CCCl)cc5)CCC43C)C1CCC(=O)N2 (stereo not drawn) | IC50 | > 100 µM |

## Task Give its IC50 value. Item: C[C@]12CC[C@H](OC(=O)CCOc3ccc(N(CCCl)CCCl)cc3)CC1=CC(=O)NC1C2CC[C@]2(C)C(=O)CCC12 (stereo partly drawn)
## Result 47 µM

---

# System: UWB1.289
# condition: read-out: IC50 ±SEM (50% cytocidal effect, cytotoxic); UWB1.289, 48 h treatment, MTT
pIC50: −log10 of the molar value.
Readings of pIC50 for the listed molecules

| molecule | value_type | result |
| --- | --- | --- |
| O=C(c1cc(Cc2n[nH]c(=O)c3ccccc23)ccc1F)N1CCN(C(=O)C2CC2)CC1 | pIC50 | < 4.00 |

Now turn to the next molecule.
## Task Give its pIC50 value. Item: NC(=O)c1cccc(N)c1 [3-AB, 3-Aminobenzamide, reference compound]
## Result < 4.00

---

# procedure_text: in vitro
# condition: human
Readings of IC50 for the listed molecules

For orientation, consider the following solved cases.
| molecule | value_type | result |
| --- | --- | --- |
| CC(C)CCCC(C)[C@H]1CCC2C3NC(=O)C=C4C[C@@H](OC(=O)CCOc5ccc(N(CCCl)CCCl)cc5)CC[C@]4(C)C3CC[C@@]21C (stereo partly drawn) [ASA-C] | IC50 | > 100 µM |
| C[C@]12CC[C@H](OC(=O)CCOc3ccc(N(CCCl)CCCl)cc3)CC1=CC(=O)NC1C2CC[C@]2(C)C(=O)CCC12 (stereo partly drawn) [ASA-A] | IC50 | > 100 µM |

## Task Give its IC50 value. Item: CC12CCC3C(NC(=O)C=C4CC(OC(=O)CCOc5ccc(N(CCCl)CCCl)cc5)CCC43C)C1CCC(=O)N2 (stereo not drawn) [ASA-B]
## Result > 100 µM

---

# Tested on: OVCAR-3
# condition: read-out: IC50 ±SEM (50% cytocidal effect, cytotoxic); OVCAR-3, 48 h treatment, MTT
pIC50: −log10 of the molar value.
Readings of pIC50 for the listed compounds

| compound | target_under_test | pIC50 |
| --- | --- | --- |
| O=C(c1cc(Cc2n[nH]c(=O)c3ccccc23)ccc1F)N1CCN(C(=O)C2CC2)CC1 | OVCAR-3 | < 4.00 |

Now turn to the next compound.
## Task Give its pIC50 value. Item: NC(=O)c1cccc(N)c1 [3-AB, 3-Aminobenzamide, reference compound]
## Result < 4.00

---

# Tested on: SKOV-3
# condition: read-out: GI50 ±SEM (50% inhibition of cell growth, cytostatic)
Readings of GI50 for the listed compounds

| compound | GI50 |
| --- | --- |
| CC12CCC3C(NC(=O)C=C4CC(OC(=O)CCOc5ccc(N(CCCl)CCCl)cc5)CCC43C)C1CCC(=O)N2 (stereo not shown) | 24 µM |

## Task Request: GI50, test system SKOV-3, entry CC(C)CCCC(C)[C@H]1CCC2C3NC(=O)C=C4C[C@@H](OC(=O)CCOc5ccc(N(CCCl)CCCl)cc5)CC[C@]4(C)C3CC[C@@]21C (stereo partly shown)
## Result > 100 µM

## Task Request: GI50, test system SKOV-3, entry C[C@]12CC[C@H](OC(=O)CCOc3ccc(N(CCCl)CCCl)cc3)CC1=CC(=O)NC1C2CC[C@]2(C)C(=O)CCC12 (stereo partly shown)
## Result 15 µM

## Task Request: GI50, test system SKOV-3, entry `O=C(c1cc(Cc2n[nH]c(=O)c3ccccc23)ccc1F)N1CCN(C(=O)C2CC2)CC1`
## Result > 100 µM
